Biological target: T1, rabbit serum albumin (rabbit, UniProt P49065 25-608)
T1 construct: also called Rabbit SA; BuSA
T1 sequence (P49065 25-608 limits assumed): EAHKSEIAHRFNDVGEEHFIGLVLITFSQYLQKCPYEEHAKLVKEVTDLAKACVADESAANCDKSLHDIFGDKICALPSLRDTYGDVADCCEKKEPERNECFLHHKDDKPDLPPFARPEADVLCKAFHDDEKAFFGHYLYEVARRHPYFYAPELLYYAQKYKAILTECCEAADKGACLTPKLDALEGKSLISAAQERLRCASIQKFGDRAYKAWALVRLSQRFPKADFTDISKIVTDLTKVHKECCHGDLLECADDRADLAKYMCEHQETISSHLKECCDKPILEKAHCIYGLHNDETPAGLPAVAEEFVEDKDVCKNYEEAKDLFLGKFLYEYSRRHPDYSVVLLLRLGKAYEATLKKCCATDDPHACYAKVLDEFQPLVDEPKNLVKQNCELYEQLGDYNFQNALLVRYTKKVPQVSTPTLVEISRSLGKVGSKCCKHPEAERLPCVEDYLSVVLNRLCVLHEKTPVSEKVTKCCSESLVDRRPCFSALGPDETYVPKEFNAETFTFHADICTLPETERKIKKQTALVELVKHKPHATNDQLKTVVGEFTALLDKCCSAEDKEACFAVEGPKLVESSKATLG
Assay: SA08 peptide competition
pIC50: −log10 of the molar value. No end group written: not given here.
Measured pIC50, listed per entry.
test_readout: pIC50

- Ac-RLIEDICLPRWGCLWEDD-NH2 (cysteine pairing not given here, free peptide) [SA21]: 6.57
- GEWWEDICLPRWGCLWEEED-NH2 (not fully specified (bridges); printed as GEWWEDICLPRWGCLWEEED-NH2; cysteine pairing not given here, free peptide) [SA15]: 7.89
